measurement.target: recombinant GSK3β kinase (Homo sapiens (Human))
Sequence (P49841 whole entry): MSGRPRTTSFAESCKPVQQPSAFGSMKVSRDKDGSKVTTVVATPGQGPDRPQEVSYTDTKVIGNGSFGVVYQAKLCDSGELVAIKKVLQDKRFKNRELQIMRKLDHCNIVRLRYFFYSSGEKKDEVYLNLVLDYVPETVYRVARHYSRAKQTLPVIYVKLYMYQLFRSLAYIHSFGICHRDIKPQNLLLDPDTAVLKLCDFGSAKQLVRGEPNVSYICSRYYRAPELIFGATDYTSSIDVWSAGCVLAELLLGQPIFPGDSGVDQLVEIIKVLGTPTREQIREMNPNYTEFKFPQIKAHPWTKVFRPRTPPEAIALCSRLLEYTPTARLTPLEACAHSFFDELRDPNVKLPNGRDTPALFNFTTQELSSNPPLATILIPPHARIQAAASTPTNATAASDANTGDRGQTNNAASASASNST
measurement.description: GSK3β kinase assay (Ser/Thr 09 peptide Z-lyte FRET);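 further: kinase activity read as coumarin to fluorescein emission ratio, 11-point threefold dilutions from 10 µM to 0.0003 µM in duplicate, unphosphorylated and phosphorylated peptide as 0% and 100% controls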
condition.parameters: 46 μM ATP, 1 h room temperature
The label is satisfied for EC50 below 100 nM and not satisfied for EC50 equal to or exceeding 100 nM.

O=C(CN1CCCC1)Nc1cc2cc(-c3cnco3)ccc2cn1: not satisfied
O=C(Nc1cc2cc(-c3cncs3)ccc2cn1)C1(F)CCCCC1: not satisfied
COCCN1CCC(C(=O)Nc2cc3cc(-c4cnn(C)c4)ccc3cn2)CC1: satisfied
Cn1cc(-c2ccc3cnc(NC(=O)C4CCN(CC(C)(C)C)CC4)cc3c2)cn1: satisfied
C[C@@H]1COCCN1CC(=O)Nc1cc2cc(-c3cnn(C)c3)ccc2cn1: not satisfied
Cn1cc(-c2ccc3cnc(NC(=O)CN4C[C@@H]5C[C@H]4CO5)cc3c2)cn1: satisfied
COC1CCN(CC(=O)Nc2cc3cc(-c4cnn(C)c4)ccc3cn2)CC1: satisfied
CO[C@H]1CC[C@@H](C(=O)Nc2cc3cc(-c4nnc(C)s4)ccc3cn2)CC1: satisfied
Cc1nnc(-c2ccc3cnc(NC(=O)CN4C[C@H]5C[C@@H]4CO5)cc3c2)s1: satisfied
CN1CCC(N(C)C(=O)Nc2cc3cc(-c4cnn(C)c4)ccc3cn2)CC1: not satisfied
Cn1cc(-c2ccc3cnc(NC(=O)C4CCN(CCC(F)(F)F)CC4)cc3c2)cn1: satisfied
CN1CCC(C(=O)Nc2cc3cc(-c4cnn(C)c4)c(F)cc3cn2)CC1: satisfied
C[C@@H]1CCCN1CC(=O)Nc1cc2cc(-c3cnco3)ccc2cn1: not satisfied
Cn1cc(-c2ccc3cnc(NC(=O)C4CCN(C(=O)c5ccccc5)CC4)cc3c2)cn1: satisfied
Cc1ncc(-c2ccc3cnc(NC(=O)CN4CCN(C)CC4)cc3c2)s1: not satisfied
Cn1cc(-c2ccc3cnc(NC(=O)C4CC5(CCN(CCF)CC5)C4)cc3c2)cn1: satisfied
Cn1cc(-c2ccc3cnc(NC(=O)C4CCN(C5COC5)CC4)cc3c2)cn1: satisfied
CN1CCC(C(=O)Nc2cc3cc(-c4cnn(C)c4)c(Cl)cc3cn2)CC1: not satisfied
Cn1cc(-c2cc3cc(NC(=O)C4CCNCC4)ncc3cc2Cl)cn1: not satisfied
Cn1cc(-c2ccc3cnc(NC(=O)CN4CCCC4)cc3c2)cn1: satisfied
CC(C)CN1CCC(F)(C(=O)Nc2cc3cc(-c4cn(C)nn4)ccc3cn2)CC1: satisfied
CC(C)CN1CCC(F)(C(=O)Nc2cc3cc(-c4cnc5n4CCNC5)ccc3cn2)CC1: not satisfied
Cc1ncc(-c2ccc3cnc(NC(=O)C4CC4)cc3c2)n1C: satisfied
Cn1cnnc1-c1ccc2cnc(NC(=O)C3CCN(CCC(F)(F)F)CC3)cc2c1: satisfied
Cn1cc(-c2ccc3cnc(NC(=O)C(C)(C)F)cc3c2)nn1: satisfied
Cn1cc(-c2ccc3cnc(NC(=O)C4CCN(CC(F)F)CC4)cc3c2)cn1: satisfied
Cn1cc(-c2ccc3cnc(NC(=O)CN4CCCCC4)cc3c2)cn1: satisfied
O=C(CN1CCCC1)Nc1cc2cc(-c3cnn(C4CC4)c3)ccc2cn1: not satisfied
